Parameter normalized growth: see the listing below.
assay: chemical genetic growth profiling, strain panel (AID 1159580);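 also: tested at 20 µM; growth read once vehicle control cultures reached saturation at 30 °C; 1 = growth at the plate median or of vehicle wells; lower values mean less growth of the strain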; settings: S. cerevisiae deletion strains, growth OD, locus YMR058W, strain fet3, active compounds read low
Screen size: about 5,500 compounds; about 2,000 (36%) were called active. Roughly 18% stayed inconclusive and do not appear here. The list shows a part of the results.

CC(=O)Nc1c(I)cc(I)c(C(=O)O)c1I | 0.989 (inactive)
COc1cc(O)ccc1C(C)=O | 1.03 (inactive)
O=C(CCc1ccc(O)cc1)c1c(O)cc(O)cc1O | 0.968 (inactive)

Enquiry: Fill in: normalized growth of COc1cc(OC)c2c(OC)c(-c3ccc4c(c3)OCO4)c(=O)oc2c1 is ___
Return: 0.962 (inactive)

Enquiry: Name the reported normalized growth value associated with the compound COC(=O)C[C@H]1C(C)(C)[C@@H](OC(C)=O)[C@@H]2CC3=C4CC(=O)O[C@@H](c5ccoc5)[C@]4(C)CCC3[C@@]1(C)C2=O (stereo partly specified)
Return: 0.993 (inactive)

Enquiry: Fill in: normalized growth of CC12CCC(OC(=O)c3ccccc3)CC1CCc1ccccc12 (stereo unspecified) is ___
Return: 1 (inactive)

Enquiry: Field request: normalized growth | item: CC(=O)NS(=O)(=O)c1ccc(N)cc1
Return: 1.03 (inactive)

Enquiry: Requested field: normalized growth. Item: O=C1NS(=O)(=O)c2ccccc21
Return: 1.03 (inactive)

---

experiment: chemical genetic growth profiling, strain panel (AID 1159580);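 also: tested at 20 µM; growth read once vehicle control cultures reached saturation at 30 °C; 1 = growth at the plate median or of vehicle wells; lower values mean less growth of the strain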; conditions: S. cerevisiae deletion strains, growth OD, locus YHR200W, strain rpn10, active compounds read low
Out of some 5,500 compounds screened, about 2,000 (36%) were called active. Another 18% or so got no clear call; they are omitted. The list shows a part of the results.
parameter: normalized growth
Reply with just the number.

Consider the following illustrative entries.
NC(Cc1ccc(Cl)cc1)C(=O)O (configuration not stated) | 1
CC(C)Cn1c(=O)n(C)c(=O)c2[nH]cnc21 | 0.982

Enquiry: What value of normalized growth has been reported for the following molecule? O=C(c1ccccc1)c1ccc2n1CCC2C(=O)O (configuration not stated)
Return: 0.96

Enquiry: Would you kindly share the measured normalized growth for O=C(/C=C/c1ccccc1)c1c(O)cc(O)cc1O ?
Return: 1

Enquiry: // lookup normalized growth for O=C1c2ccccc2C(=O)c2ccccc21
Return: 0.988

Enquiry: Item under review: CCCCCC/C=C\CCCCCCCc1cccc(O)c1C(=O)O . Reported normalized growth?
Return: 1

Enquiry: Please give the measured normalized growth for this molecule: CCCCN(CC)c1c([N+](=O)[O-])cc(C(F)(F)F)cc1[N+](=O)[O-]
Return: 1.01

Enquiry: Look at this molecule and give its reported normalized growth. CN1CCN(C2=Nc3cc(Cl)ccc3Nc3ccccc32)CC1
Return: 1.01

Enquiry: # lookup: normalized growth of Cc1c(NC(C)C)c(=O)n(-c2ccccc2)n1C
Return: 0.981

Enquiry: Dear colleague, I am looking for the recorded normalized growth of the following molecule: CC[C@H]1OC(=O)[C@H](C)[C@@H](O[C@H]2C[C@@](C)(OC)[C@@H](O)[C@H](C)O2)[C@H](C)[C@@H](O[C@@H]2O[C@H](C)C[C@H](N(C)C)[C@H]2O)[C@](C)(O)C[C@@H](C)/C(=N/OCOCCOC)[C@H](C)[C@@H](O)[C@]1(C)O
Return: 1.01
